# targetSystem: T1, recombinant SARS-CoV-2 Spike RBD domain, Delta variant (SARS-CoV-2)
# T1 construct: also called RBD Delta variant
# assayExplanation: ELISA on coated RBD

[
  {
    "binder": "SPK002M A5 antibody (antibody, human IgG1, kappa, V domains shown) VH: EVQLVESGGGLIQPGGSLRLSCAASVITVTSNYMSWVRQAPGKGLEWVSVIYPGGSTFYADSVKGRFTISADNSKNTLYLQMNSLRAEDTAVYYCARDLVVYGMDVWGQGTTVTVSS VL: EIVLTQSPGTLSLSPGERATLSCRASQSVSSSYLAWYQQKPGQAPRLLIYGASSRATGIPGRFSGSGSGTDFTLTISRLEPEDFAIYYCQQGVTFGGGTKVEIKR",
    "Binding AUC": 33
  },
  {
    "binder": "SPK002M A3 antibody (antibody, human IgG1, kappa, V domains shown) VH: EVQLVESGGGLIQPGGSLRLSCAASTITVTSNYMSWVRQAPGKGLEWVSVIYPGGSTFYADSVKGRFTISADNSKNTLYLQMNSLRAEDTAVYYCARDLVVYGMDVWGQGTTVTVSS VL: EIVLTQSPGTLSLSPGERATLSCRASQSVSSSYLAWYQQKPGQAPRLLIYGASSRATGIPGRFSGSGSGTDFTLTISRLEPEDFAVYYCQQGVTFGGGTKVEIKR",
    "Binding AUC": 31
  },
  {
    "binder": "SPK002M C1 antibody (antibody, human IgG1, kappa, V domains shown) VH: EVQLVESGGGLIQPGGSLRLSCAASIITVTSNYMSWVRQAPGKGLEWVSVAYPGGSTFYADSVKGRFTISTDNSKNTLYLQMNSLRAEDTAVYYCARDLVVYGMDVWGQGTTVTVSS VL: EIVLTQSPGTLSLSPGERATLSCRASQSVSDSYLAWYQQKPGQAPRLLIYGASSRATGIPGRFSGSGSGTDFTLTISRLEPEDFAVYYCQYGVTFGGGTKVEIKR",
    "Binding AUC": 32
  },
  {
    "binder": "SPK002M B1 antibody (antibody, human IgG1, kappa, V domains shown) VH: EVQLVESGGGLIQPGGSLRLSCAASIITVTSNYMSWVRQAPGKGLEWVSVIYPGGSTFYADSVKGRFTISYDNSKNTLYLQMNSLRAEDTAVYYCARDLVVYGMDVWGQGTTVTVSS VL: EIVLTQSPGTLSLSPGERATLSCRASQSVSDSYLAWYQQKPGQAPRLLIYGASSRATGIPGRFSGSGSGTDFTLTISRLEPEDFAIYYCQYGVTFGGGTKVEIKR",
    "Binding AUC": 33
  },
  {
    "binder": "SPK002M A4 antibody (antibody, human IgG1, kappa, V domains shown) VH: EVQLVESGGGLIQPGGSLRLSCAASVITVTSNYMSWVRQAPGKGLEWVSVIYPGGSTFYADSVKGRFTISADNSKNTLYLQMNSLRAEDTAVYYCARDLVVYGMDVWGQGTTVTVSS VL: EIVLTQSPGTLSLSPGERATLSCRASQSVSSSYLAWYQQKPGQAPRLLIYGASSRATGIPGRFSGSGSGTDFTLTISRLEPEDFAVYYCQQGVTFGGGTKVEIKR",
    "Binding AUC": 31
  }
]
